From: patent US11958861B2

What pIC50 was measured for each of the following?
- TESTED SYSTEM: catalytic domain (JH1, amino acids 826-1132) of human JAK2 (Homo sapiens, UniProt O60674)
- Construct: catalytic domain (JH1, amino acids 826-1132) of human JAK2
- Sequence (O60674 826-1132): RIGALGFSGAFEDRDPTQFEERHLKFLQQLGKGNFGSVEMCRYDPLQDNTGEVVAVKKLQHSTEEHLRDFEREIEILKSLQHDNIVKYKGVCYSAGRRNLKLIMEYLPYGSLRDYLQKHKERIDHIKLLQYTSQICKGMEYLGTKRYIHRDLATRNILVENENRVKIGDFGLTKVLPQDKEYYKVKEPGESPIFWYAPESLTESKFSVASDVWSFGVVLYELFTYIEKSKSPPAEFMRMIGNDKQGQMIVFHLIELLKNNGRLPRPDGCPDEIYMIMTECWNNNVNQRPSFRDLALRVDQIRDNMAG
- ASSAY NOTES: JAK2 LanthaScreen JH1 Binding Assay
- RUN CONDITIONS: 2 hours at 25° C.
pIC50: −log10 of the molar value. Where a name gives a salt, the structure may show the parent alone.

q: Need pIC50 of O=C(O)C(F)(F)F.[2H]C([2H])([2H])n1ncc2cc(-c3c(-c4ccc(CN5CCOCC5)cc4)[nH]c4ncc5c(c34)C3(CC4(CN(S(=O)(=O)CC)C4)C3)C(=O)N5C)ccc21 [Example 85] , thanks.
a: 5.60 to 5.90

q: Need pIC50 of [2H]C([2H])([2H])n1ncc2cc(-c3c(-c4cnn(C)c4)[nH]c4ncc5c(c34)C3(CCN([C@](C)(CC#N)COC)CC3)C(=O)N5C)ccc21 (single isomer, unassigned) [Example 80a] , thanks.
a: 5.60 to 5.90

q: Need pIC50 of CN1C(=O)C2(CCN(C(C(N)=O)c3ccc(F)cc3)CC2)c2c1cnc1[nH]c(-c3cnn(C)c3)c(-c3ccccc3)c21 (racemic) [Example 26, trifluoroacetate salt] , thanks.
a: 6.30 to 7.00

q: Need pIC50 of COCCS(=O)(=O)N1CCC2(CC1)CC1(C2)C(=O)N(C)c2cnc3[nH]c(-c4cnn(C)c4)c(-c4ccccc4)c3c21 [Example 62, trifluoroacetate salt] , thanks.
a: < 5.60

---

What pIC50 was measured for each of the following?
- TESTED SYSTEM: catalytic domain (JH1, amino acids 826-1132) of human JAK2 (Homo sapiens, UniProt O60674)
- Construct: catalytic domain (JH1, amino acids 826-1132) of human JAK2
- ASSAY NOTES: JAK2 LanthaScreen JH1 Binding Assay
- RUN CONDITIONS: 2 hours at 25° C.
pIC50: −log10 of the molar value. Counter-ions that a name gives are not always drawn.

q: Need pIC50 of [2H]C([2H])([2H])n1ncc2cc(-c3c(-c4cnn5c4CCC5)[nH]c4ncc5c(c34)C3(CCN(C4(CC#N)CCCC4)CC3)C(=O)N5C)ccc21 , thanks.
a: < 5.60

q: Need pIC50 of CN1C(=O)C2(CCN(C(C)(C)c3c[nH]nn3)CC2)c2c1cnc1[nH]c(-c3cnn(C)c3)c(-c3ccc4c(cnn4C)c3)c21 , thanks.
a: 6.30 to 7.00

q: Need pIC50 of CCS(=O)(=O)N1CCC[C@@]2(CC1)C(=O)N(C)c1cnc3[nH]c(-c4cnn(C(C)C)c4)c(-c4ccc5c(cnn5C)c4)c3c12 (single isomer, unassigned) [Example 53b] , thanks.
a: 6.30 to 7.00

q: Need pIC50 of CN1C(=O)C2(C=CN(C3(CC#N)CC3)C=C2)c2c1cnc1[nH]c(-c3cnn(C)c3)c(-c3ccc4c(cnn4C)c3)c21 [Example 74, trifluoroacetate salt] , thanks.
a: 5.90 to 6.30

q: Need pIC50 of O=C(O)C(F)(F)F.[2H]C([2H])([2H])n1ncc2cc(-c3c(-c4cnn5c4OCCC5)[nH]c4ncc5c(c34)C3(CC4(CN(S(=O)(=O)CC)C4)C3)C(=O)N5C)ccc21 , thanks.
a: < 5.60

q: Need pIC50 of CN1C(=O)C2(CCN(c3ccncn3)CC2)c2c1cnc1[nH]c(-c3ccc(CN4CCC(S(C)(=O)=O)CC4)cc3)c(-c3ccccc3)c21 [Example 15, trifluoroacetate salt] , thanks.
a: < 5.60

q: Need pIC50 of CCS(=O)(=O)N1CC2(C1)CC1(C2)C(=O)N(C)c2cnc3[nH]c(-c4ccc(CN5CCC(C#N)CC5)cc4)c(-c4ccc5c(cnn5C)c4)c3c21 [Example 91, trifluoroacetate salt] , thanks.
a: 5.60 to 5.90

q: Need pIC50 of COCCn1cc(-c2[nH]c3ncc4c(c3c2-c2ccc3c(cnn3C)c2)C2(CCN(C3(CC#N)CCC3)CC2)C(=O)N4C)cn1 [Example 36, trifluoroacetate salt] , thanks.
a: 6.30 to 7.00

q: Need pIC50 of CCS(=O)(=O)N1CC2(C1)CC1(C2)C(=O)N(C)c2cnc3[nH]c(-c4cnn(C)c4)c(-c4ccc5c(cnn5C)c4)c3c21 [Example 86, trifluoroacetate salt] , thanks.
a: 5.90 to 6.30

q: Need pIC50 of CC(=O)N1CC(CC#N)(N2CCC3(CC2)C(=O)N(C)c2cnc4[nH]c(-c5cnn(C)c5)c(-c5ccccc5)c4c23)C1 [Example 24, trifluoroacetate salt] , thanks.
a: 5.90 to 6.30

q: Need pIC50 of CN1C(=O)C2(CCN(CCC#N)CC2)c2c1cnc1[nH]c(-c3ccc(CN4CCC(S(C)(=O)=O)CC4)cc3)c(-c3ccccc3)c21 [Example 4, trifluoroacetate salt] , thanks.
a: 5.90 to 6.30
